Measured values drawn from patent US20150258192A1 for this set.

- TARGET: EphA5(h) (Homo sapiens, UniProt P54756)
- Sequence (P54756 25-1037): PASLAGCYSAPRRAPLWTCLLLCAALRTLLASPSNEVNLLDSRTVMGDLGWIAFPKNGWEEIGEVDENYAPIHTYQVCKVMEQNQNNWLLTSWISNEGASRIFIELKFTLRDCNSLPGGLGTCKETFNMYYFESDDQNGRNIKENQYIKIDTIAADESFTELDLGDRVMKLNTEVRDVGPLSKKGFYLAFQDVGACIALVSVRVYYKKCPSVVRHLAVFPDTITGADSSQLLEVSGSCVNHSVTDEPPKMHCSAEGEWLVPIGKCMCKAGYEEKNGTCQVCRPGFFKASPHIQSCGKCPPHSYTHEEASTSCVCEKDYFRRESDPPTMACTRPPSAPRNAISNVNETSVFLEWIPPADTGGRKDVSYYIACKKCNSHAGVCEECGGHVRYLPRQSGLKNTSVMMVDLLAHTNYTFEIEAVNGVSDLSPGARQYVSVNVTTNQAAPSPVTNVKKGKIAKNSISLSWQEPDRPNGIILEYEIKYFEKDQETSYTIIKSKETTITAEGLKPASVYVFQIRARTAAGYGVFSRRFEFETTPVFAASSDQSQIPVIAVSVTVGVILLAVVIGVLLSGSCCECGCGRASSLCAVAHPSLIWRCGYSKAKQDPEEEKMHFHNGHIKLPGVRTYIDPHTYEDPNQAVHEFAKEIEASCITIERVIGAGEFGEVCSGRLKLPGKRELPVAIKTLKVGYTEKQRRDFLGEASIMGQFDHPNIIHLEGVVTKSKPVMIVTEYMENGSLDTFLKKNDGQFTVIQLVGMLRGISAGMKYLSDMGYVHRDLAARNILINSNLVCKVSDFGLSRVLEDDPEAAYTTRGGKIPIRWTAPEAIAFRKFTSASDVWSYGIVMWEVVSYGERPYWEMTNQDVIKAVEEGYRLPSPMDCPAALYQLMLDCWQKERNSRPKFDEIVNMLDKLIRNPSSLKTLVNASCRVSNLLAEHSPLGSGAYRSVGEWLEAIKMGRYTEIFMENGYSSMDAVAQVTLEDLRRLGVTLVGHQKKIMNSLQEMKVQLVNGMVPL
- PROTOCOL_DESCRIPTION: Kinase Profiling Assay
- Type: biochemical
- CONDITION_DESCRIPTION: peptide 100 μM
No end group written: not given here.

BIOSEQUENCE: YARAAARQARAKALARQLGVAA [MMI-0100]
% activity / %: 110
//
BIOSEQUENCE: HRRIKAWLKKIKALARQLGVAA (Mammal) [MMI-0500]
% activity / %: 42
//
BIOSEQUENCE: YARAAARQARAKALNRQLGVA (Mammal) [MMI-0200]
% activity / %: 123
//
BIOSEQUENCE: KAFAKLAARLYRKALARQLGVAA [MMI-0400]
% activity / %: 24
//
BIOSEQUENCE: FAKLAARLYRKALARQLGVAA [MMI-0300]
% activity / %: 18

###

Listed sequences paired with reported % activity
- TARGET: SGK(h) (Homo sapiens, UniProt O00141)
- Construct: purchased Millipore
- Sequence (O00141 whole entry): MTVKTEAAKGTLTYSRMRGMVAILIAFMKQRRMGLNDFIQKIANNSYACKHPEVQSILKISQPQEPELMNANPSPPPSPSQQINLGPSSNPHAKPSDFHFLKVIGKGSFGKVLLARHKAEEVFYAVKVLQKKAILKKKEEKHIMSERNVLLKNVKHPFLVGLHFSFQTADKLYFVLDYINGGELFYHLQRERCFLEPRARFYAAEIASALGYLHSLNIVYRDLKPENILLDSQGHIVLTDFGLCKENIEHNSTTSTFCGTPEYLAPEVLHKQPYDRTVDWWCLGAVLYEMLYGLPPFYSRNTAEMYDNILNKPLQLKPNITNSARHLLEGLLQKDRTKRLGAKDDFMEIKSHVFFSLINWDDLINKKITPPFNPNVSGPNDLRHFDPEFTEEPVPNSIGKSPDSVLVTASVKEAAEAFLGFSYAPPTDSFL
- PROTOCOL_DESCRIPTION: Kinase Profiling Assay
- Format: biochemical
- CONDITION_DESCRIPTION: peptide 100 μM
No end group written: not given here.

BIOSEQUENCE: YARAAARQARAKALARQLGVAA [MMI-0100]
UNITS: %
% activity: 128
//
BIOSEQUENCE: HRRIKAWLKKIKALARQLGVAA (Mammal) [MMI-0500]
UNITS: %
% activity: 2
//
BIOSEQUENCE: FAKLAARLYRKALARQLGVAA [MMI-0300]
UNITS: %
% activity: 48
//
BIOSEQUENCE: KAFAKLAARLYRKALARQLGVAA [MMI-0400]
UNITS: %
% activity: 54

###

- TARGET: Fes(h) (Homo sapiens)
- Sequence (P07332 whole entry): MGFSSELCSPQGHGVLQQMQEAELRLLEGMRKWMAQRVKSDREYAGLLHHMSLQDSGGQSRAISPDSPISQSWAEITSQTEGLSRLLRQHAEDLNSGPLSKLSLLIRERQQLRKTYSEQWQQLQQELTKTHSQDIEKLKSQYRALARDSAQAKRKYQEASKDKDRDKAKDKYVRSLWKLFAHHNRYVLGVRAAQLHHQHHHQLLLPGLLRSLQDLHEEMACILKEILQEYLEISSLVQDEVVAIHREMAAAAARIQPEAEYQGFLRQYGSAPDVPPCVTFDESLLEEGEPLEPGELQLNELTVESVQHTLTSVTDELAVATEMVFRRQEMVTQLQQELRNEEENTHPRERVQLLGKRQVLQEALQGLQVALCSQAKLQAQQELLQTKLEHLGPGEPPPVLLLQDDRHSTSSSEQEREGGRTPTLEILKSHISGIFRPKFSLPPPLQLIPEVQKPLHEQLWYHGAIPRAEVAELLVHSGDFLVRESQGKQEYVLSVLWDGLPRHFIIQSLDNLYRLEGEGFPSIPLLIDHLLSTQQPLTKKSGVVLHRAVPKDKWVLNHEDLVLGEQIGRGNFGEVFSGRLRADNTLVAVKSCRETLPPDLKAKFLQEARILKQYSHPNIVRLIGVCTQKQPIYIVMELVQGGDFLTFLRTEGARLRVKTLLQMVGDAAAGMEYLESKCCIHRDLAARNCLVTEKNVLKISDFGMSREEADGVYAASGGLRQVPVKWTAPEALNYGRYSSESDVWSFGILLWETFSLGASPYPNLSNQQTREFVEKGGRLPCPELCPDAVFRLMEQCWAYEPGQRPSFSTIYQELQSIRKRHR
- PROTOCOL_DESCRIPTION: Kinase Profiling Assay
- Format: biochemical
- CONDITION_DESCRIPTION: peptide 100 μM
Measured % activity accompanies every entry in the list below.

BIOSEQUENCE: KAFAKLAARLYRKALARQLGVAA [MMI-0400]
% activity: 16%

BIOSEQUENCE: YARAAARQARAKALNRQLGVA (Mammal) [MMI-0200]
% activity: 74%

BIOSEQUENCE: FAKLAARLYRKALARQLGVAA [MMI-0300]
% activity: 20%

BIOSEQUENCE: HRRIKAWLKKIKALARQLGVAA (Mammal) [MMI-0500]
% activity: 23%

###

- TARGET: PKCα(h) (Homo sapiens, UniProt P17252)
- PROTOCOL_DESCRIPTION: Kinase Profiling Assay
- Type: biochemical
- CONDITION_DESCRIPTION: peptide 100 μM
ATTRIBUTE_MEASURED: % activity (%)

BIOSEQUENCE: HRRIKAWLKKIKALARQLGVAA (Mammal) [MMI-0500]
NUMERIC_RESULT: 3
--
BIOSEQUENCE: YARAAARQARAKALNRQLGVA (Mammal) [MMI-0200]
NUMERIC_RESULT: 100
--
BIOSEQUENCE: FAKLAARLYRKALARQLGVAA [MMI-0300]
NUMERIC_RESULT: 89
--
BIOSEQUENCE: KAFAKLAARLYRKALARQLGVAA [MMI-0400]
NUMERIC_RESULT: 86
